target_desc: 5-Lipoxygenase (crude enzyme preparation from rat basophilic leukemia cells, RBL-1) (Rattus norvegicus)
Construct: crude enzyme preparation from rat basophilic leukemia cells (RBL-1); endogenous in cells; host or cells: rat basophilic leukemia cells (RBL-1)
Sequence (P12527 1-673): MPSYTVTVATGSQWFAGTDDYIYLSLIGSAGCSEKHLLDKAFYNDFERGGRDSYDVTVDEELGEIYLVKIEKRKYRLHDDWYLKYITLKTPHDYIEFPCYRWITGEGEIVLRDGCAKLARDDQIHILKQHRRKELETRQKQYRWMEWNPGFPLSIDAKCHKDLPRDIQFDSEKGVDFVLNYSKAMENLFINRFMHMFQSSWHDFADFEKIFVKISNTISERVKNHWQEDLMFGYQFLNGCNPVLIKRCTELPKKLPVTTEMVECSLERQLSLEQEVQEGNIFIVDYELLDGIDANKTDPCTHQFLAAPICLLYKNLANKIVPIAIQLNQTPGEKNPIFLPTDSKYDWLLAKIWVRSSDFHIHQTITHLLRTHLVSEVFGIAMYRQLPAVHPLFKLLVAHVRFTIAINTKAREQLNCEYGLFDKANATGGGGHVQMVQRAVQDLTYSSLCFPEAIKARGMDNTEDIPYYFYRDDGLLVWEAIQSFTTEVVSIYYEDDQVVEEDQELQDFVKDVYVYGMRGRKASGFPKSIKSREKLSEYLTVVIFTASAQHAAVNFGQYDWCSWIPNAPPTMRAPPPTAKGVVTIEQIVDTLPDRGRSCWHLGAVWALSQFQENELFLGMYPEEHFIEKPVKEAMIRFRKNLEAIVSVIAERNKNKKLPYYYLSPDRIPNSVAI
experimental_protocol: 5-Lipoxygenase screen (5-LO), 5-HETE by RIA
Format: biochemical
cond: read-out: Percent inhibition of 5-LO; test conc. 1 μM (Table II)
Listed below: inhibition at 1 µM values for each entry.
// units = %; emit number, no label

Guide cases for inhibition at 1 µM, answers given:
>  <molecule>
C[C@]1(c2ccc(-c3ccccc3)cc2)OC(=O)C(O)=C1O

>  <inhibition at 1 µM, %>
60

$$$$
>  <molecule>
CCCC1(c2ccc(CC(C)C)cc2)OC(=O)C(O)=C1O (centres unmarked)

>  <inhibition at 1 µM, %>
40

$$$$
>  <molecule>
O=C1OC(CCC#Cc2ccccc2CSc2ccccc2)C(O)=C1O (centres unmarked)

>  <inhibition at 1 µM, %>
70

$$$$
>  <molecule>
O=C1OC(CCOc2ccc(Oc3ccccc3)cc2)C(O)=C1O (centres unmarked)

>  <inhibition at 1 µM, %>
52

$$$$

Would you kindly look at the next entry?
Q. Please report the measured inhibition at 1 µM for O=C1OC(CCOc2ccc3oc4ccccc4c3c2)C(O)=C1O (centres unmarked)
A. 60
